Study System: human KDR protein in HEK-293 cells (Homo sapiens (Human), UniProt P35968)
Sequence (P35968 20-1356): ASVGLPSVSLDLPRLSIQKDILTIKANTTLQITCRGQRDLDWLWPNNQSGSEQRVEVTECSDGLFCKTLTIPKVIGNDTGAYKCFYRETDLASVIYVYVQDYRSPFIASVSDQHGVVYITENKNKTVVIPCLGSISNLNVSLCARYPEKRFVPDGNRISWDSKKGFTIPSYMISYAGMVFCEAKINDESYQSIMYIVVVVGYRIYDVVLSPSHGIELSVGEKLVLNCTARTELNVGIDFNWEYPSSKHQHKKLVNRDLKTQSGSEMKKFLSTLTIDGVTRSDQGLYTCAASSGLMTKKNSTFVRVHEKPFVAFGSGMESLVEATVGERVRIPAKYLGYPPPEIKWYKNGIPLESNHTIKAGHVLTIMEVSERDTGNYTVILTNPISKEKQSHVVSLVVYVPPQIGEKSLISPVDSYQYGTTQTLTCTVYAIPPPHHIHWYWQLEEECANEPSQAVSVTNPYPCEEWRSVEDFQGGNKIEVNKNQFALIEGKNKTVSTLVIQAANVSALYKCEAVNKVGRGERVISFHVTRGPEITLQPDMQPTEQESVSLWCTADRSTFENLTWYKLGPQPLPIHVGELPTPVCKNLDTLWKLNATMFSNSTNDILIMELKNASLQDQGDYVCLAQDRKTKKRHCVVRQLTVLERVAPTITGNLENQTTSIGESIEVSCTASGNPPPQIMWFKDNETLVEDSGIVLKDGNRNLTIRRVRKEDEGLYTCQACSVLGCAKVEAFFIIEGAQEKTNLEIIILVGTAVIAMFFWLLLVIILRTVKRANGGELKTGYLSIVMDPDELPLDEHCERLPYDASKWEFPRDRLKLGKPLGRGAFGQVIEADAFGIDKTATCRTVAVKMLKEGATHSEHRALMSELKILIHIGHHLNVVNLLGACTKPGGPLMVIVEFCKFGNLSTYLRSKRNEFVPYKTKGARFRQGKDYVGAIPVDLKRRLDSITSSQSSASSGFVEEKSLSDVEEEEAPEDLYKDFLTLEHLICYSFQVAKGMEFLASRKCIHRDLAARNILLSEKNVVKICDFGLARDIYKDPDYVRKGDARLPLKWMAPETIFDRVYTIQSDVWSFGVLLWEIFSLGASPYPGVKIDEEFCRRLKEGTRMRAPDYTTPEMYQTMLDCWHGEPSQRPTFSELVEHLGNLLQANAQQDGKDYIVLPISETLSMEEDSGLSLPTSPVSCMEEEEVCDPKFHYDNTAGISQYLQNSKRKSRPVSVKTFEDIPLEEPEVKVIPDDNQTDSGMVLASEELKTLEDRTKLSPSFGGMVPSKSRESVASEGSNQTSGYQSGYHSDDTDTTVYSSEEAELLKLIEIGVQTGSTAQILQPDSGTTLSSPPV
Test Description: KDR Cell Assay (phospho-KDR in HEK-293 cells expressing inducible KDR)
Format: cell-based
Test Conditions: pKDR Cell HEK 10% FBS IC50, HEK-293 cells expressing inducible KDR, VEGF stimulated, 10% FBS
Reported Property: pIC50
// returns pIC50 (minus log10 of molar concentration), number only

Solved cases (2 shown):
Molecule | Meas Value
Cn1cc(-c2cc(-c3ccc(N4CCN(C(=O)C5(O)CC5)CC4)nc3)c3c(C#N)cnn3c2)cn1 | 6.12
CC(C)C(=O)N1CCN(c2ccc(-c3cc(-c4cnn(C)c4)cn4ncc(C#N)c34)cn2)CC1 | 6.04

Report pIC50, nothing else, for this molecule: `CCCC(=O)N1CCN(c2ccc(-c3cc(-c4cnn(C)c4)cn4ncc(C#N)c34)cn2)CC1`
6.29

Output pIC50 of COCCn1ccc(C(=O)N2CCN(c3ccc(-c4cc(-c5cnn(C)c5)cn5ncc(C#N)c45)cn3)CC2)n1 [Example 366, bis(2,2,2-trifluoroacetate)]
6.37

---

The following compounds are shown together with reported IC50 values.
Study System: human KDR protein in HEK-293 cells (Homo sapiens (Human), UniProt P35968)
Test Description: KDR Cell Assay (phospho-KDR in HEK-293 cells expressing inducible KDR)
Format: cell-based
Test Conditions: pKDR Cell HEK 10% FBS IC50, HEK-293 cells expressing inducible KDR, VEGF stimulated
Give just the number in nM; leave the unit off.

Solved cases below.
Compound | Reported Property | Meas Value
Cn1cc(-c2cc(-c3ccc(N4CCC(S(C)(=O)=O)CC4)nc3)c3c(C#N)cnn3c2)cn1 | IC50 | 198
Cc1cccnc1CN1CCN(c2ccc(-c3cc(-c4cnn(C)c4)cn4ncc(C#N)c34)cn2)CC1 | IC50 | 1990

Recall and state the measured IC50 for CN1CCCC12CCCN(c1ccc(-c3cc(-c4cnn(C)c4)cn4ncc(C#N)c34)cn1)C2 (stereo not shown) .
802

Return IC50 (reported value) for this compound: `Cn1cc(-c2cc(-c3ccc(N4CCC(Oc5ccccc5)CC4)nc3)c3c(C#N)cnn3c2)cn1`
2.9

---

Study System: N-terminal GST tagged recombinant human RET cytoplasmic domain (aa 658-end), wild type RET kinase (Homo sapiens (Human), UniProt P07949)
Sequence (P07949 658-1114): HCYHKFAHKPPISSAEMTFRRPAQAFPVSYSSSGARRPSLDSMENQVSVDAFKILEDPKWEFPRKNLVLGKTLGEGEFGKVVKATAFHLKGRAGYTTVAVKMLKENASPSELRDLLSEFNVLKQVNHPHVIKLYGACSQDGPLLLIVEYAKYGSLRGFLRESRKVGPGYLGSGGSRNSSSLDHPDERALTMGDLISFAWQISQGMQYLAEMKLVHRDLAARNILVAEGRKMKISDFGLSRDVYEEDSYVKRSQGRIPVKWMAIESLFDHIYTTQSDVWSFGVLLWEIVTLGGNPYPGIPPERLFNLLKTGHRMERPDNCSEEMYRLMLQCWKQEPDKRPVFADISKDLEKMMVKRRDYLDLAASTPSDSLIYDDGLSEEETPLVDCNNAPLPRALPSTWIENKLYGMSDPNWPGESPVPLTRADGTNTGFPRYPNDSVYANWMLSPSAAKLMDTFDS
Test Description: RET Enzyme Assay (HTRF KinEASE-TK), wild type RET
Type: biochemical
Test Conditions: wild type RET, 1 mM ATP
IC50 reference
Give the number; nM is assumed, so skip it.

Solved cases below.
Compound | IC50 [nM]
Cn1cc(-c2cc(-c3ccc(N4CCN(C(=O)CC(C)(C)C)CC4)nc3)c3c(C#N)cnn3c2)cn1 [Example 65] | 8.2
COC(CN1CCN(c2ccc(-c3cc(-c4cnn(C)c4)cn4ncc(C#N)c34)cn2)CC1)C(C)(C)C (stereo not drawn) [Example 417] | 37.1

Answer with the recorded IC50 for the compound listed here: CC(C)CC(=O)N1CCN(c2ccc(-c3cc(-c4cnn(C)c4)cn4ncc(Cl)c34)cn2)CC1 [Example 646]
15.6

Let me know recorded IC50 for CC(C)[C@H](O)C(=O)N1CCN(c2ccc(-c3cc(-c4cnn(C)c4)cn4ncc(C#N)c34)cn2)CC1 [Example 54] , thanks.
12.4

Give IC50 for Cc1nn(C(C)C)cc1-c1cc(-c2ccc(N3CCN(Cc4ccccc4)CC3)nc2)c2c(C#N)cnn2c1 [Example 614]
22.2
